All values here come from patent US20220073608A1.

target system: T1, hSEMA4D ECD-His (His-tagged human SEMA4D protein extracellular domain, Met22-Arg734) (human, UniProt Q92854 22-734)
T1 construct: Expressed in CHO-S cells, purified on Ni column; also called protein immunogen; immunogen A; not shown: His tag of the pCP vector
T1 sequence: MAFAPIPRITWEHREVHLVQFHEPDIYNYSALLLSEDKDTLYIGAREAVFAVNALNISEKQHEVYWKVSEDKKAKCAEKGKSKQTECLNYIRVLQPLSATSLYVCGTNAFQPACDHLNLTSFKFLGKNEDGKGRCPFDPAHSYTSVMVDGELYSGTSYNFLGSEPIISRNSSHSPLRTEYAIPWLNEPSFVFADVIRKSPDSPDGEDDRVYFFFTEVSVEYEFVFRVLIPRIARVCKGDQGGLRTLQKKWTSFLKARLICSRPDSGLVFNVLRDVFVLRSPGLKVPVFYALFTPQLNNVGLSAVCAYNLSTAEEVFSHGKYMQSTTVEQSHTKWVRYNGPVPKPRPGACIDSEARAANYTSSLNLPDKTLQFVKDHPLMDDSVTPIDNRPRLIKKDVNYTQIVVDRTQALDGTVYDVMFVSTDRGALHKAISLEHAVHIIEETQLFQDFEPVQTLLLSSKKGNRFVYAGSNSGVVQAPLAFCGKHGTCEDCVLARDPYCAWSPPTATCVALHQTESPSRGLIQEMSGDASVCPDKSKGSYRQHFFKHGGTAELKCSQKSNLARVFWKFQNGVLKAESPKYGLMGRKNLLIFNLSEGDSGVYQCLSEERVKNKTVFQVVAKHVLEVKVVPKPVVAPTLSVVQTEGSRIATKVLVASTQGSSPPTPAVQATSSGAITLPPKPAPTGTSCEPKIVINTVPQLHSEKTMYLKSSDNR
assay text: ELISA, coated hSEMA4D ECD-His; Ab 1.33 nM
assay metric: OD450 nm
Just the number.

Below: 2 binders and their reported OD450 nm.
binder="32C8F10 (antibody, V domains shown, Mouse monoclonal antibody purified from hybridoma supernatant on protein A) VH: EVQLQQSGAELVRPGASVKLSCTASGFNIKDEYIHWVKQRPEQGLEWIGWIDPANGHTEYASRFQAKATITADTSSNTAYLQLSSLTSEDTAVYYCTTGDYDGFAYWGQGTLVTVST VL: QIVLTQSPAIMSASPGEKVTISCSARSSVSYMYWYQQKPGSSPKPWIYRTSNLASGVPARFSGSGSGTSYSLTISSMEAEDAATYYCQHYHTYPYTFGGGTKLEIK" assay_metric="OD450 nm" recorded_result=1.87
binder="31G10C5 (antibody, V domains shown, Mouse monoclonal antibody purified from hybridoma supernatant on protein A) VH: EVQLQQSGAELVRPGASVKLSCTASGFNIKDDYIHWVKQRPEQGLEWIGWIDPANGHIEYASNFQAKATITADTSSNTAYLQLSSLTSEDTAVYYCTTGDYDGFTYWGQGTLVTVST VL: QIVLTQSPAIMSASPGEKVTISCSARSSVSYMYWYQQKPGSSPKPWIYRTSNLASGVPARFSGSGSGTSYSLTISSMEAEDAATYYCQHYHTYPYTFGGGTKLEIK" assay_metric="OD450 nm" recorded_result=1.52

Tell me measured OD450 nm for 31C11G2 (antibody, V domains shown, Mouse monoclonal antibody purified from hybridoma supernatant on protein A) VH: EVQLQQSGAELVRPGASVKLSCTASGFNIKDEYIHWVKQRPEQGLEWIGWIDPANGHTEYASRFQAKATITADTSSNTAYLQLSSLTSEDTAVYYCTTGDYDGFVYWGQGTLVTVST VL: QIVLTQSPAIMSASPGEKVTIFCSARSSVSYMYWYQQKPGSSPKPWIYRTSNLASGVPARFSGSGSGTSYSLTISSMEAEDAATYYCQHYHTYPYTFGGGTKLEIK please.
1.67
